- Test system: MDA-MB-231 breast
- protocol details: NCI-60 one-dose screen, 48 h
- assay context: 10 µM
This is part of a sample that, as a whole, favours compounds with a hit. Of some 83,000 tested, about 20% had one in any assay. Calls of active or inactive are those of the source. The calls were made as follows: active = growth percent below 10; inactive = the rest.
Respond using exactly one of the listed classes: TRUE for active, FALSE for inactive

Solved entries (count: 8):
{"columns": ["molecule", "target under test", "class name"],
 "data": [
  ["O=[P+](O)c1ccccc1", "MDA-MB-231 breast", "FALSE"],
  ["O=C1C=Cc2ccccc2C1=O", "MDA-MB-231 breast", "FALSE"],
  ["CC(=O)[O][Hg][c]1c(C)c(C)cc(C)c1C", "MDA-MB-231 breast", "TRUE"],
  ["CCOP(=O)(OCC)/C(C#N)=C/c1ccc(Br)cc1", "MDA-MB-231 breast", "FALSE"],
  ["Oc1c(Cl)cc(Cl)c2ccccc12.[Cu+2]", "MDA-MB-231 breast", "FALSE"],
  ["NC(=O)c1cc([N+](=O)[O-])c(Cl)c([N+](=O)[O-])c1Cl", "MDA-MB-231 breast", "TRUE"],
  ["O=C(CCl)Nc1ccc(Cl)cc1", "MDA-MB-231 breast", "FALSE"],
  ["CC12OOC(c3ccccc31)c1c2ccc2ccccc12 (stereo not drawn)", "MDA-MB-231 breast", "FALSE"]
]}

// query Check the results log: what was the call for "COc1cc(/C=C/[N+](=O)[O-])cc(OC)c1OC" ?
// result FALSE

// query Now the molecule CC1CCC2(OC1)OC1C(O)C3C4CCC5CC(OC6OC(CO)C(OC7OC(CO)C(O)C(OC8OCC(O)C(O)C8O)C7OC7OC(CO)C(O)C(OC8OC(CO)C(O)C(O)C8O)C7O)C(O)C6O)C(O)CC5(C)C4CCC3(C)C1C2C (stereo not drawn)
// result TRUE

// query And the next one, "Cc1cc(C(C)(C)c2ccc(O)c(C)c2)ccc1O" ?
// result FALSE

// query Please answer likewise for "O=[N+]([O-])/C=C\c1ccc2c(c1)OCO2"
// result FALSE

---

- Test system: U251 CNS
- protocol details: NCI-60 one-dose screen, 48 h (100 = growth as untreated, 0 = no growth, -100 = all killed)
- assay context: 10 µM
The panel holds about 83,000 compounds, 20% with a hit somewhere; the sample as a whole holds those more often.
1.0 if growth is below 70%. 0.0 if not; exact matches included in 0.0.

Some solved cases for reference:
{"columns": ["compound", "class name"],
 "data": [
  ["Cc1cc(C(C)(C)c2ccc(O)c(C)c2)ccc1O", 0.0],
  ["Oc1c(Cl)cc(Cl)c2ccccc12.[Cu+2]", 0.0],
  ["C#CC1(O)CCC(C(C)(C)C)CC1 (stereo unspecified)", 0.0],
  ["CC[C@@]1(O)C[C@H](OC2CC(N(C)C)C(O)C(C)O2)c2c(cc3c(c2O)C(=O)c2c(O)ccc(O)c2C3=O)[C@H]1C(=O)OC (stereo partly specified)", 1.0],
  ["COC(C(=O)C(O)C(C)O)C1Cc2cc3cc(OC4CC(OC(C)=O)C(OC5CC(O)C(OC)C(C)O5)C(C)O4)cc(O)c3c(O)c2C(=O)C1OC1CC(OC2CC(OC3CC(C)(O)C(OC(=O)C(C)C)C(C)O3)C(O)C(C)O2)C(O)C(C)O1 (stereo unspecified)", 1.0],
  ["[O-][n+]1ccccc1S", 1.0],
  ["COc1cc(/C=C/[N+](=O)[O-])cc(Br)c1OC", 1.0],
  ["COC12C(COC(N)=O)C3=C(C(=O)C(C)=C(N)C3=O)N1CC1C2N1C (stereo unspecified)", 1.0]
]}

// query Quick check: growth of "O=[N+]([O-])/C=C/c1ccc(Cl)cc1[N+](=O)[O-]" under 70%?
// result 1.0

// query Then "COc1cc([C@@H]2c3cc4c(c(O)c3C[C@H]3COC(=O)[C@@H]32)OCO4)cc(OC)c1OC" ?
// result 1.0

---

Measured growth, listed per entry.
- Tested on: SNB-19 CNS
- protocol details: NCI-60 one-dose screen, 48 h (100 = growth as untreated, 0 = no growth, -100 = all killed)
- assay context: 10 µM
The panel holds about 83,000 compounds, 20% with a hit somewhere; the sample as a whole holds those more often.
The answer is to be given in %; state only the numeric part.

{"columns": ["molecule", "growth [%]"],
 "data": [
  ["CC(=O)Nc1c2sscc-2n(C)c1=O", -100],
  ["Oc1c(Cl)cc(Cl)c2ccccc12.[Cu+2]", 121]
]}

// query // growth lookup, key: "NC(=O)c1cc([N+](=O)[O-])c(Cl)c([N+](=O)[O-])c1Cl"
// result 74

// query Continue with "CC/C(=C/c1ccc(OC)cc1OC)[N+](=O)[O-]"
// result 41.6

// query Also, "O=S(=O)(F)c1ccc(Cl)cc1" please.
// result 101

// query Entry "COc1cc([N+](=O)[O-])c2ncccc2c1[N+](=O)[O-]" please
// result 96

// query // query: CC(Cc1ccc2c(c1)OCO2)NN (centres undefined)
// result 105

// query Follow-up item: "COc1cc(/C=C/[N+](=O)[O-])cc(Br)c1OC"
// result 49

// query Now consider CS(=N)(=O)CCC(N)C(=O)O (centres undefined) .
// result 102

// query // repeat for CC[C@@H](C)[C@@H]1NC(=O)C(NC(=O)C(CC(C)C)N(C)C(=O)C2CCCN2C(=O)C(C)O)C(C)OC(=O)C(Cc2ccc(OC)cc2)N(C)C(=O)C2CCCN2C(=O)C(CC(C)C)NC(=O)C(C)C(=O)C(C(C)C)OC(=O)C[C@H]1O (some centres undefined) and report
// result -44

// query Another molecule: "O=[N+]([O-])c1ccc(Br)c([N+](=O)[O-])c1"
// result 101

// query Then this molecule: "COc1cc2c(c(OC)c1OC)-c1ccc(O)c(=O)cc1[C@@H](NC(C)=O)CC2"
// result 38

// query Also COC(C(=O)C(O)C(C)O)C1Cc2cc3cc(OC4CC(OC(C)=O)C(OC5CC(O)C(OC)C(C)O5)C(C)O4)cc(O)c3c(O)c2C(=O)C1OC1CC(OC2CC(OC3CC(C)(O)C(OC(=O)C(C)C)C(C)O3)C(O)C(C)O2)C(O)C(C)O1 (centres undefined) ?
// result -4.78

// query What do you have for "[O-][n+]1ccccc1S" ?
// result 59.9

// query Then this molecule: "CCCCCCCC[N+]12CN3CN(CN(C3)C1)C2"
// result 90.1

// query One more molecule: COC1CC2C=C(C)/C=C/C=C/C(=O)NC(c3ccccc3)C/C=C/CCC(O)CC(=O)C2=C1O (centres undefined)
// result -27.1

// query Would you kindly repeat that for CC[C@@]1(O)C[C@H](OC2CC(N(C)C)C(O)C(C)O2)c2c(cc3c(c2O)C(=O)c2c(O)ccc(O)c2C3=O)[C@H]1C(=O)OC (some centres undefined) ?
// result -36.9

// query Field entry: "COc1ccccc1/C=C/[N+](=O)[O-]"
// result 86.9

// query Same again, this time with COC(=O)C1C(O)C(C)C(O)C(C)/C=C\C=C(C)C(=O)Nc2c(C)c(OC(C)=O)c3c(c2O)C(=O)C(C)=C2OCOC(=C23)C(C)=CC(C)(O)C(O)C(C)C1O (centres undefined)
// result 99.1

// query Then this molecule: "N#CCc1ccccc1"
// result 98.6

// query Do the same for "CN(CCCl)c1ccc(/C=C/C2=[N+](C)c3ccccc3C2(C)C)cc1" please
// result 42.5

// query Likewise for "O=[N+]([O-])c1cc[n+]([O-])c2ccccc12" ?
// result -17.6

---

- System: RXF 393 renal
- protocol details: NCI-60 one-dose screen, 48 h (100 = growth as untreated, 0 = no growth, -100 = all killed)
- assay context: 10 µM
- Description: Cells are grown in 96 well plates and exposed to the test compound for 48 hours. Compounds are tested at a single concentration, which is 10^-5 M for most compounds. The reported endpoint is percent growth (GI% or GIPRCNT), where numbers from 0 - 100% represent growth inhibition, and numbers from -100% - 0 represent cell death. For example, a value of 40 represents 60% growth inhibition. A value of 0 means no net growth occurred over the course of the experiment. […]
Compounds without any hit were thinned out: in the full panel of roughly 83,000, 20% have a hit.
Record rule met whenever growth is at -60% or higher; record rule not met when lower.

# count of solved cases: 5
{"columns": ["compound", "class name"],
 "data": [
  ["COC1CC2C=C(C)/C=C/C=C/C(=O)NC(c3ccccc3)C/C=C/CCC(O)CC(=O)C2=C1O (stereo unspecified)", "rule not met"],
  ["C[C@]12CC[C@H]3[C@@H](CCC4=CC(=O)CC[C@@H]43)[C@@H]1CC[C@@H]2OC(=O)N(CCCl)N=O", "rule met"],
  ["[Cl][Sn]([c]1ccccc1)([c]1ccccc1)[c]1ccccc1", "rule not met"],
  ["O=[N+]([O-])c1ccc(Br)c([N+](=O)[O-])c1", "rule met"],
  ["[Cl][Hg][c]1ccc(Cl)s1", "rule not met"]
]}

// query Decide: growth of "NNc1ccccc1" >= -60%?
// result rule met

// query And for "NC(=O)c1cc([N+](=O)[O-])c(Cl)c([N+](=O)[O-])c1" ?
// result rule met

// query Another: "O=C1CCC(=O)N1SC(Cl)(Cl)Cl"
// result rule met

// query Check COC12c3c(C)cc(O)c4c(=O)occ(c34)C(=O)C1C13COC(=O)c4c(O)cc(C)c(c41)C(=O)C2C3OC(C)=O (stereo unspecified) too.
// result rule met

// query And what about the compound "CC(C)c1cc([N+](=O)[O-])cc([N+](=O)[O-])c1O" ?
// result rule met
